method: AUC (0 to infinity) in Sprague-Dawley rat at 2 mg/kg, iv
Assay type: ADME, organism-based
Set-up: time infinity, route intravenous, dose 2 mg/kg
experimental.context: in vivo
experimental.endpoint: AUC(0-inf) (ng·h/mL)
# number only, unit ng·h/mL dropped from output

Exam item: Kindly indicate its recorded AUC(0-inf). Item: O=S(=O)(Nc1cc(-c2cnc3[nH]ncc3c2)cnc1Cl)c1ccccc1
Marked response: 10500

====

study.target: Phosphatidylinositol 4,5-bisphosphate 3-kinase catalytic subunit delta isoform (Homo sapiens)
Sequence (O00329 whole entry): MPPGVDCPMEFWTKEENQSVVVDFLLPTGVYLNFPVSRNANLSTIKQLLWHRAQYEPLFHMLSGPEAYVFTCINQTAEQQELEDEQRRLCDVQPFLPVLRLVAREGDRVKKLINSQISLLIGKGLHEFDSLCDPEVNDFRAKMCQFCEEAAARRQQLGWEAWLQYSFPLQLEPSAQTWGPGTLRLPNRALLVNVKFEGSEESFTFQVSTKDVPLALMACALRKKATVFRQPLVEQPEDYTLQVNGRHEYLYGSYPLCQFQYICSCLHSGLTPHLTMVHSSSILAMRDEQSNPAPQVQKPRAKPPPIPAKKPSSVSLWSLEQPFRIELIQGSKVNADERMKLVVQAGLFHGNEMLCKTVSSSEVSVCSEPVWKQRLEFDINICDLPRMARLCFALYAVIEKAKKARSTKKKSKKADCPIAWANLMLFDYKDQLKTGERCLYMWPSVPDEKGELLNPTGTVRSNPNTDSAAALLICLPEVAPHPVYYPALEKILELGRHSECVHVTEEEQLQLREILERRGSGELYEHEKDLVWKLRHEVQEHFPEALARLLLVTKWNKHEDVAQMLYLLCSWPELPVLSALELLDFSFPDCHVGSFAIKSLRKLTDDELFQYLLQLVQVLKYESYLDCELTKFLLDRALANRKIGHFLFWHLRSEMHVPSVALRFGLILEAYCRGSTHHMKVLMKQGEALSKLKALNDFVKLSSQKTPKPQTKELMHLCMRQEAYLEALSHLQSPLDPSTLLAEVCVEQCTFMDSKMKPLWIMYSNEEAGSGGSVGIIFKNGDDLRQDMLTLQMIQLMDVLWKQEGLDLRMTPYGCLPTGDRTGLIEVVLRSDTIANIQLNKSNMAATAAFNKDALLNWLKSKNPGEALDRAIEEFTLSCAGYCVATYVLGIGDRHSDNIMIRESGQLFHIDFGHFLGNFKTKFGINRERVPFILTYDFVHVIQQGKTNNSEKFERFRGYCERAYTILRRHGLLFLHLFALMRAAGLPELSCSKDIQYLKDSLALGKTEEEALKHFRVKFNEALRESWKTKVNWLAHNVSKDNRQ
method: Inhibition of PI3Kdelta (unknown origin) using PIP2 as substrate in presence of ATP measured after 60 mins by ADP-Glo assay
experimental.endpoint: IC50 (nM)
Output spec: scalar in nM, unitless text.

Would you please look over these solved cases?
>>> val("O=S(=O)(Nc1cc(-c2ccc3[nH]ccc3c2)cnc1Cl)c1ccccc1")
334
>>> val("O=S(=O)(Nc1cc(-c2ccc3[nH]cnc3c2)cnc1Cl)c1ccccc1")
28
>>> val("O=S(=O)(Nc1cc(-c2ccc3[nH]nnc3c2)cnc1Cl)c1ccccc1")
15

Exam item: Tell me IC50 reported for O=S(=O)(Nc1cc(-c2cnc3scnc3c2)cnc1Cl)c1ccccc1
Marked response: 204

Exam item: Provide measured IC50 value, entry: O=S(=O)(Nc1cc(-c2ccc3scnc3c2)cnc1Cl)c1ccccc1
Marked response: 604

Exam item: Output IC50 of O=S(=O)(Nc1cc(-c2ccc3occc3c2)cnc1Cl)c1ccccc1
Marked response: 17

Exam item: Give IC50 for the following compound: O=S(=O)(Nc1cc(-c2cnc3occc3c2)cnc1Cl)c1ccccc1
Marked response: 209

Exam item: Output IC50 of O=S(=O)(Nc1cc(-c2cc3cc[nH]c3cn2)cnc1Cl)c1ccccc1
Marked response: 1310

Exam item: Report IC50, nothing else, for this compound: O=S(=O)(Nc1cc(-c2ccc3[nH]ncc3n2)cnc1Cl)c1ccccc1
Marked response: 294

Exam item: Supply measured IC50 of O=S(=O)(Nc1cc(-c2ccc3sccc3c2)cnc1Cl)c1ccccc1 in your reply.
Marked response: 859

Provenance of the data: ChEMBL document CHEMBL4840313
